- Test system: 521955-158-R2-J5-PDC complex spheroid growth
- run description: Anticancer human tumor 521955-158-R2-J5-PDC patient-derived pancreatic carcinoma cell line growth inhibition [AhR]; active = viability on the fitted dose curve at most 10% of control; inactive = the rest
- experimental setup: second compound 10 µM; first compound 10 µM
Outcomes: YES for active, NO for inactive

# compound, answer label
records = [
    ("COc1cc(C2c3cc4c(cc3C(OC3OC5COC(C)OC5C(O)C3O)C3COC(=O)C23)OCO4)cc(OC)c1O (stereo unspecified) + Cc1ccccc1N=Nc1ccc(NC(=O)c2ccnn2C)c(C)c1", "NO"),
    ("COc1cccc2c1C(=O)c1c(O)c3c(c(O)c1C2=O)CC(O)(C(=O)CO)CC3OC1CC(N)C(O)C(C)O1 (stereo unspecified) + Cc1ccccc1N=Nc1ccc(NC(=O)c2ccnn2C)c(C)c1", "YES"),
    ("CC1(C)CCC(CN2CCN(c3ccc(C(=O)NS(=O)(=O)c4ccc(NCC5CCOCC5)c([N+](=O)[O-])c4)c(Oc4cnc5[nH]ccc5c4)c3)CC2)=C(c2ccc(Cl)cc2)C1 + Cc1ccccc1N=Nc1ccc(NC(=O)c2ccnn2C)c(C)c1", "NO"),
    ("CC(C)c1c(-c2ccccc2)nc2c(C#N)c[nH]n2c1=O + CC(CO)NC(=O)c1cc(-c2ccc(Cl)cc2)nn(-c2cnn(C)c2)c1=O", "NO"),
    ("COc1ccc([C@@H](O)c2cc(-c3ncnc4cc(N5CCOCC5)ccc34)c(F)cc2Cl)nn1 + Cc1cncc(-c2nc(NCCc3c[nH]c4ccccc34)c3ncn(C(C)C)c3n2)c1", "NO"),
    ("COc1cc(Nc2ncc3c(n2)-c2ccc(Cl)cc2C(c2c(F)cccc2OC)=NC3)ccc1C(=O)O + Cc1cncc(-c2nc(NCCc3c[nH]c4ccccc34)c3ncn(C(C)C)c3n2)c1", "NO"),
    ("O=C(c1cc(Cc2n[nH]c(=O)c3ccccc23)ccc1F)N1CCN(C(=O)C2CC2)CC1 + Cc1ccccc1N=Nc1ccc(NC(=O)c2ccnn2C)c(C)c1", "NO"),
    ("CC1(C)CCC(CN2CCN(c3ccc(C(=O)NS(=O)(=O)c4ccc(NCC5CCOCC5)c([N+](=O)[O-])c4)c(Oc4cnc5[nH]ccc5c4)c3)CC2)=C(c2ccc(Cl)cc2)C1 + CC(CO)NC(=O)c1cc(-c2ccc(Cl)cc2)nn(-c2cnn(C)c2)c1=O", "NO"),
    ("Nc1ccn(C2OC(CO)C(O)C2(F)F)c(=O)n1 (stereo unspecified) + Cc1ccccc1N=Nc1ccc(NC(=O)c2ccnn2C)c(C)c1", "NO"),
    ("Nc1ccn(C2OC(CO)C(O)C2(F)F)c(=O)n1 (stereo unspecified) + CC(CO)NC(=O)c1cc(-c2ccc(Cl)cc2)nn(-c2cnn(C)c2)c1=O", "NO"),
    ("COc1cccc2c1C(=O)c1c(O)c3c(c(O)c1C2=O)CC(O)(C(=O)CO)CC3OC1CC(N)C(O)C(C)O1 (stereo unspecified) + Cc1cncc(-c2nc(NCCc3c[nH]c4ccccc34)c3ncn(C(C)C)c3n2)c1", "YES"),
]

====

- Test system: 521955-158-R2-J5-PDC complex spheroid growth
- run description: Anticancer human tumor 521955-158-R2-J5-PDC cell line growth inhibition [AhR]
- experimental setup: curve of first compound; second compound 10 µM
pIC50: −log10 of the molar value.
Measured pIC50 values are reported for all entries that follow.

# molecule, pIC50
records = [
    ("Nc1ccccc1NC(=O)c1ccc(CNC(=O)OCc2cccnc2)cc1 + Cc1cncc(-c2nc(NCCc3c[nH]c4ccccc34)c3ncn(C(C)C)c3n2)c1", 5.99),
    ("CC1COCCN1c1cc(C2(S(C)(=N)=O)CC2)nc(-c2ccnc3[nH]ccc23)n1 (stereo unspecified) + Cc1cncc(-c2nc(NCCc3c[nH]c4ccccc34)c3ncn(C(C)C)c3n2)c1", 5.61),
    ("COc1ccc([C@@H](O)c2cc(-c3ncnc4cc(N5CCOCC5)ccc34)c(F)cc2Cl)nn1 + Cc1cncc(-c2nc(NCCc3c[nH]c4ccccc34)c3ncn(C(C)C)c3n2)c1", "< 5.00"),
    ("Nc1ncn(C2CC(O)C(CO)S2)c(=O)n1 (stereo unspecified) + Cc1cncc(-c2nc(NCCc3c[nH]c4ccccc34)c3ncn(C(C)C)c3n2)c1", "< 6.52"),
    ("Nc1ncn(C2CC(O)C(CO)O2)c(=O)n1 (stereo unspecified) + Cc1ccccc1N=Nc1ccc(NC(=O)c2ccnn2C)c(C)c1", "< 6.00"),
    ("CCN(c1cc(-c2ccc(CN3CCOCC3)cc2)cc(C(=O)NCc2c(C)cc(C)[nH]c2=O)c1C)C1CCOCC1 + CC(CO)NC(=O)c1cc(-c2ccc(Cl)cc2)nn(-c2cnn(C)c2)c1=O", "< 5.52"),
]

====

- System: 521955-158-R2-J5-PDC complex spheroid growth
- run description: Anticancer human tumor 521955-158-R2-J5-PDC cell line growth inhibition [AhR];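 as to viability, T/C: spheroids mix tumor cells with HUVEC endothelium and human MSC stroma; luminescence taken as viability surrogate after a week of drug exposure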
- experimental setup: second compound 3.16 µM; first compound 0.3 µM; stronger effect = lower value

# compound, viability, T/C [%]
data = [
    ("Nc1ncn(C2CC(O)C(CO)S2)c(=O)n1 (stereo not drawn) + Cc1ccccc1N=Nc1ccc(NC(=O)c2ccnn2C)c(C)c1", 109),
    ("O=C(C=Cn1cnc(-c2cc(C(F)(F)F)cc(C(F)(F)F)c2)n1)NNc1cnccn1 + Cc1cncc(-c2nc(NCCc3c[nH]c4ccccc34)c3ncn(C(C)C)c3n2)c1", 36.8),
    ("O=C(C=Cn1cnc(-c2cc(C(F)(F)F)cc(C(F)(F)F)c2)n1)NNc1cnccn1 + CC(CO)NC(=O)c1cc(-c2ccc(Cl)cc2)nn(-c2cnn(C)c2)c1=O", 29.4),
]

====

- System: 521955-158-R2-J5-PDC complex spheroid growth
- run description: Anticancer human tumor 521955-158-R2-J5-PDC cell line growth inhibition [AhR]; active means viability on the fitted dose curve at most 10% of control; inactive means the rest
- experimental setup: second compound 0.316 µM; first compound 1 µM
Outcomes: y = active, n = inactive

# compound, answer label
data = [
    ("O=C(c1cc(Cc2n[nH]c(=O)c3ccccc23)ccc1F)N1CCN(C(=O)C2CC2)CC1 + Cc1ccccc1N=Nc1ccc(NC(=O)c2ccnn2C)c(C)c1", "n"),
    ("CC1COCCN1c1cc(-c2ccnn2C)c2ccnc(-c3ccn[nH]3)c2n1 (centres undefined) + CC(CO)NC(=O)c1cc(-c2ccc(Cl)cc2)nn(-c2cnn(C)c2)c1=O", "y"),
    ("Nc1ccccc1NC(=O)c1ccc(CNC(=O)OCc2cccnc2)cc1 + Cc1cncc(-c2nc(NCCc3c[nH]c4ccccc34)c3ncn(C(C)C)c3n2)c1", "n"),
    ("CC(C)c1c(-c2ccccc2)nc2c(C#N)c[nH]n2c1=O + Cc1cncc(-c2nc(NCCc3c[nH]c4ccccc34)c3ncn(C(C)C)c3n2)c1", "n"),
    ("Nc1ccn(C2OC(CO)C(O)C2(F)F)c(=O)n1 (centres undefined) + CC(CO)NC(=O)c1cc(-c2ccc(Cl)cc2)nn(-c2cnn(C)c2)c1=O", "n"),
    ("Nc1ccn(C2OC(CO)C(O)C2(F)F)c(=O)n1 (centres undefined) + Cc1cncc(-c2nc(NCCc3c[nH]c4ccccc34)c3ncn(C(C)C)c3n2)c1", "n"),
    ("O=C(c1cc(Cc2n[nH]c(=O)c3ccccc23)ccc1F)N1CCN(C(=O)C2CC2)CC1 + CC(CO)NC(=O)c1cc(-c2ccc(Cl)cc2)nn(-c2cnn(C)c2)c1=O", "n"),
    ("CC(C)c1c(-c2ccccc2)nc2c(C#N)c[nH]n2c1=O + CC(CO)NC(=O)c1cc(-c2ccc(Cl)cc2)nn(-c2cnn(C)c2)c1=O", "n"),
    ("CC1COCCN1c1cc(C2(S(C)(=N)=O)CC2)nc(-c2ccnc3[nH]ccc23)n1 (centres undefined) + CC(CO)NC(=O)c1cc(-c2ccc(Cl)cc2)nn(-c2cnn(C)c2)c1=O", "n"),
    ("CC1COCCN1c1cc(C2(S(C)(=N)=O)CC2)nc(-c2ccnc3[nH]ccc23)n1 (centres undefined) + Cc1cncc(-c2nc(NCCc3c[nH]c4ccccc34)c3ncn(C(C)C)c3n2)c1", "n"),
    ("COc1ccc([C@@H](O)c2cc(-c3ncnc4cc(N5CCOCC5)ccc34)c(F)cc2Cl)nn1 + CC(CO)NC(=O)c1cc(-c2ccc(Cl)cc2)nn(-c2cnn(C)c2)c1=O", "n"),
    ("CC1COCCN1c1cc(-c2ccnn2C)c2ccnc(-c3ccn[nH]3)c2n1 (centres undefined) + Cc1ccccc1N=Nc1ccc(NC(=O)c2ccnn2C)c(C)c1", "n"),
    ("COc1cccc2c1C(=O)c1c(O)c3c(c(O)c1C2=O)CC(O)(C(=O)CO)CC3OC1CC(N)C(O)C(C)O1 (centres undefined) + Cc1ccccc1N=Nc1ccc(NC(=O)c2ccnn2C)c(C)c1", "n"),
    ("CC(C)c1c(-c2ccccc2)nc2c(C#N)c[nH]n2c1=O + Cc1ccccc1N=Nc1ccc(NC(=O)c2ccnn2C)c(C)c1", "n"),
    ("Nc1ccccc1NC(=O)c1ccc(CNC(=O)OCc2cccnc2)cc1 + CC(CO)NC(=O)c1cc(-c2ccc(Cl)cc2)nn(-c2cnn(C)c2)c1=O", "n"),
    ("Nc1ccccc1NC(=O)c1ccc(CNC(=O)OCc2cccnc2)cc1 + Cc1ccccc1N=Nc1ccc(NC(=O)c2ccnn2C)c(C)c1", "n"),
    ("CC1(C)CCC(CN2CCN(c3ccc(C(=O)NS(=O)(=O)c4ccc(NCC5CCOCC5)c([N+](=O)[O-])c4)c(Oc4cnc5[nH]ccc5c4)c3)CC2)=C(c2ccc(Cl)cc2)C1 + Cc1ccccc1N=Nc1ccc(NC(=O)c2ccnn2C)c(C)c1", "n"),
    ("CC1COCCN1c1cc(-c2ccnn2C)c2ccnc(-c3ccn[nH]3)c2n1 (centres undefined) + Cc1cncc(-c2nc(NCCc3c[nH]c4ccccc34)c3ncn(C(C)C)c3n2)c1", "n"),
    ("COc1cccc2c1C(=O)c1c(O)c3c(c(O)c1C2=O)CC(O)(C(=O)CO)CC3OC1CC(N)C(O)C(C)O1 (centres undefined) + CC(CO)NC(=O)c1cc(-c2ccc(Cl)cc2)nn(-c2cnn(C)c2)c1=O", "y"),
    ("CC1(C)CCC(CN2CCN(c3ccc(C(=O)NS(=O)(=O)c4ccc(NCC5CCOCC5)c([N+](=O)[O-])c4)c(Oc4cnc5[nH]ccc5c4)c3)CC2)=C(c2ccc(Cl)cc2)C1 + Cc1cncc(-c2nc(NCCc3c[nH]c4ccccc34)c3ncn(C(C)C)c3n2)c1", "n"),
    ("Nc1ncn(C2CC(O)C(CO)O2)c(=O)n1 (centres undefined) + Cc1ccccc1N=Nc1ccc(NC(=O)c2ccnn2C)c(C)c1", "n"),
    ("O=C(C=Cc1cccc(S(=O)(=O)Nc2ccccc2)c1)NO + CC(CO)NC(=O)c1cc(-c2ccc(Cl)cc2)nn(-c2cnn(C)c2)c1=O", "n"),
    ("Nc1ncn(C2CC(O)C(CO)O2)c(=O)n1 (centres undefined) + Cc1cncc(-c2nc(NCCc3c[nH]c4ccccc34)c3ncn(C(C)C)c3n2)c1", "n"),
    ("Nc1ncn(C2CC(O)C(CO)O2)c(=O)n1 (centres undefined) + CC(CO)NC(=O)c1cc(-c2ccc(Cl)cc2)nn(-c2cnn(C)c2)c1=O", "n"),
]
